Assign viability to each entry below.
Experiment: BET inhibitor-based combinations targeting novel dependencies in MECOM-rearranged (r) AML: SET-2 cell line (AID 2202231);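 further: plate controls were DMSO treated cells for no effect and wells without cells for full effect; nearly all actives have a fitted effect of over 35% in size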
Settings: SET-2 AML cells viability, CellTiter-Glo luminescence, 48 h; stronger effect = lower value, concentration not given here
Results filed as inconclusive are left out.
// note: answer is a bare numeric in %

Item: `CCn1c(=O)c(-c2ccc(-c3cncc(C)n3)cc2Cl)cc2cnc(NCCC3CCN(C)CC3)nc21` | viability: 93.7

Item: `CO[C@H]1/C=C/O[C@@]2(C)Oc3c(C)c(O)c4c(O)c(c5c(nc6cc(C)ccn65)c4c3C2=O)NC(=O)/C(C)=C\C=C\[C@H](C)[C@H](O)[C@@H](C)[C@@H](O)[C@@H](C)[C@H](OC(C)=O)[C@@H]1C` | viability: 111

Item: `C=C1CCC[C@]2(C)C=C3OC(=O)C(C)=C3C[C@@H]12` | viability: 112

Item: `COc1cccc(Nc2ncnn3ccc(CN4CC[C@@H](N)[C@H](O)C4)c23)c1` | viability: 90.8

Item: `C[C@@H]1[C@H](O)[C@@H](C)/C=C/C=C/C=C/C=C/C=C/C=C/C=C/[C@H](O[C@@H]2O[C@H](C)[C@@H](O)[C@H](N)[C@@H]2O)C[C@@H]2O[C@](O)(C[C@@H](O)C[C@@H](O)[C@H](O)CC[C@@H](O)C[C@@H](O)CC(=O)O[C@H]1C)C[C@H](O)[C@H]2C(=O)O` | viability: 112

Item: `CN1C(=O)[C@@H](NC(=O)c2cc(Cc3ccccc3)on2)COc2ccccc21` | viability: 73.2

Item: `CN(C)C(N)=NC(=N)N` | viability: 120

Item: `C[C@H](CCC(=O)O)[C@H]1CC[C@H]2[C@@H]3[C@@H](O)C[C@@H]4C[C@H](O)CC[C@]4(C)[C@H]3CC[C@]12C` | viability: 111

Item: `O=C(/C=C/c1cccnc1)NCCCCC1CCN(C(=O)c2ccccc2)CC1` | viability: 119

Item: `Cc1cc(C)c(S(=O)(=O)N(CCc2cccc(Br)c2)Cc2ccc(-c3cccc(S(C)(=O)=O)c3)cc2)c(C)c1` | viability: 117

Item: `CCOc1ccc(-n2c([C@@H](C)N(Cc3cccnc3)C(=O)Cc3ccc(F)c(C(F)(F)F)c3)nc3ncccc3c2=O)cc1` | viability: 112

Item: Cc1ccc(NS(=O)(=O)c2ccc3c(c2)C2C=CCC2C(c2ccc(C(=O)O)cc2)N3)cc1C (stereo not given) | viability: 109

Item: `Cc1cc(/C=c2/sc3nc4ccccc4n3c2=O)c(C)n1-c1ccccc1` | viability: 105

Item: `CCC(=O)O[C@]1(C(=O)CO)CC[C@H]2[C@@H]3CCC4=CC(=O)CC[C@]4(C)[C@H]3CC[C@@]21C` | viability: 101

Item: `Cc1[nH]cnc1CN1CCN(C(=O)N[C@@H](CC(C)C)C(=O)O)[C@@H](Cc2ccccc2)C1=O` | viability: 123

Item: `Clc1cccc(-c2ccc(-c3nnc(CCCc4ccc5cccnc5n4)o3)cc2)c1` | viability: 119

Item: `O=C(/C=C/c1ccc(/C=C/C(=O)Nc2ccc(C3=NCCN3)cc2)cc1)Nc1ccc(C2=NCCN2)cc1` | viability: 113

Item: `COc1ccc(S(=O)(=O)N[C@@H](CNc2nc(C)nc(N3CCC(c4ccc5c(n4)NCCC5)CC3)c2C)C(=O)O)cc1` | viability: 111

Item: `C=CC[C@@H]1/C=C(\C)C[C@H](C)C[C@H](OC)[C@H]2O[C@@](O)(C(=O)C(=O)N3CCCC[C@H]3C(=O)O[C@H](/C(C)=C/[C@@H]3CC[C@@H](O)[C@H](OC)C3)[C@H](C)[C@@H](O)CC1=O)[C@H](C)C[C@@H]2OC` | viability: 51.4

Item: C=CCN1C[C@H](C(=O)N(CCCN(C)C)C(=O)NCC)CC2c3cccc4[nH]cc(c34)C[C@H]21 (stereo not given in full) | viability: 115

Item: O=C1OC(COc2ccccc2[N+](=O)[O-])CC1Cc1ccccc1 (stereo not given) | viability: 112

Item: `CCN[C@H]1C[C@H](C)S(=O)(=O)c2sc(S(N)(=O)=O)cc21` | viability: 114

Item: `CC1(C)SCCN(S(=O)(=O)c2ccc(OCC#CCO)cc2)[C@H]1C(=O)NO` | viability: 96.5

Item: `CN1CCN(CCCNc2ncc(Cl)c(-c3cc4c(C(=O)NC5CC5)cccc4s3)n2)CC1` | viability: 80.2

Item: COc1ccc(-c2oc3c(CC=C(C)C)c(OC4O[C@H](CO)[C@@H](O)[C@H](O)[C@H]4O)cc(O)c3c(=O)c2OC2O[C@@H](C)[C@H](O)[C@@H](O)[C@H]2O)cc1 (stereo not given in full) | viability: 116

Item: `CC1=C2[N-][C@H]([C@H](CC(N)=O)[C@@]2(C)CCC(=O)NC[C@@H](C)OP(=O)([O-])O[C@H]2[C@@H](O)[C@@H](n3cnc4cc(C)c(C)cc43)O[C@@H]2CO)[C@]2(C)N=C(C(C)=C3N=C(C=C4N=C1[C@@H](CCC(N)=O)C4(C)C)[C@@H](CCC(N)=O)[C@]3(C)CC(N)=O)[C@@H](CCC(N)=O)[C@]2(C)CC(N)=O.O.[Co+2]` | viability: 95.1

Item: C=C[C@H]1CN2CCC1C[C@@H]2C(O)c1ccnc2ccc(OC)cc12 (stereo not given in full) | viability: 103

Item: `N#Cc1ccc(C(c2ccc(C#N)cc2)n2cncn2)cc1` | viability: 96.2

Item: `N=C1CCCN1Cc1[nH]c(=O)[nH]c(=O)c1Cl` | viability: 111

Item: `C[C@H](NC(=O)c1c(N)nn2cccnc12)c1cc2cccc(C#Cc3cnn(C)c3)c2c(=O)n1-c1ccccc1` | viability: 101

====

Biological target: Retinaldehyde dehydrogenase 3 (Homo sapiens) (UniProt P47895)
Assay: qHTS for Inhibitors of the Aldehyde Dehydrogenase Family (ALDH1A3) Primary screen (AID 2061315);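 further: plate controls were DMSO vehicle for no effect and reference inhibitor for full effect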
Details: ALDH inhibition qHTS; series mostly up to 56 µM
Records with an inconclusive call do not appear. Calls of active or inactive are those of the source. The call rests on the fitted dose curve; in most records, active means well fitted inhibition curve with a large enough effect; inconclusive means small, poorly fitted or top-dose-only effect; inactive means no such curve, though single readings can be large or run the other way.
EXPERIMENTAL_READOUT: activity change, negative = inhibition

Completed entries (count: 10):
MOLECULE | activity change, negative = inhibition
FC(F)(F)c1cc(-c2nc3ccccc3s2)cc(C(F)(F)F)c1 | inactive
CCCn1c(-c2ccc(F)cc2)nc2c(NCCCCN(CC)CC)nc(C)nc21 | inactive
O=S1(=O)N=C(Oc2ccc(-c3ccccc3)cc2)c2ccccc21 | inactive
Cc1ccc(C(C)c2ccc(=O)n(CC(=O)NCCc3ccccc3)n2)cc1 (configuration not stated) | inactive
O=C(/C=C/c1cccs1)Nc1cccc([S+](=O)([O-])Nc2ccccc2F)c1 | inactive
Cc1ccc2nc3sc(C(=O)Nc4ccncc4)cc3cc2c1 | inactive
COc1cc(-c2nc(Nc3ccc(F)c(F)c3)c3ccccc3n2)cc(OC)n1 | inactive
Cc1cc(C)nc(NC(=S)N2CCN(c3cccc4ccccc34)CC2)c1 | inactive
O=C1c2ccccc2NC(c2ccc(-c3cccc(F)c3)o2)N1O (configuration not stated) | inactive
CC1(C)CC[C@]2(C(=O)O[C@@H]3O[C@H](CO[C@@H]4O[C@H](CO[C@@H]5O[C@H](CO)[C@H](O)[C@H](O)[C@H]5O)[C@@H](O)[C@H](O)[C@H]4O)[C@@H](O)[C@H](O[C@@H]4O[C@H](CO)[C@@H](O)[C@H](O)[C@H]4O)[C@H]3O)[C@H](O)C[C@]3(C)C(=CCC4[C@@]5(C)CC[C@H](O[C@@H]6OC[C@@H](O)[C@H](O)[C@H]6O)[C@@](C)(C(=O)O)C5CC[C@]43C)[C@@H]2C1 (some centres not stated) | 11.1% [at 11.2 µM] (inactive)

Item: O=C1CCCC2=C1C1(CCCOC1)N=C(Nc1nc3ccccc3o1)N2 (configuration not stated) | activity change, negative = inhibition: inactive

Item: `CCc1ccccc1C(=O)N1CCc2cc(-c3nc(NC(=O)Cc4ccc5c(c4)OCO5)sc3C)ccc21` | activity change, negative = inhibition: inactive

Item: `N#Cc1no[n+]([O-])c1-c1ccccc1` | activity change, negative = inhibition: inactive

Item: `CN(CC(=O)Nc1ccc(N2CCOCC2)cc1)Cc1cccc2ccccc12` | activity change, negative = inhibition: inactive

Item: `Cc1ccc(S(=O)(=O)Nc2ccccc2CNc2nc(-c3ccccc3)cs2)cc1` | activity change, negative = inhibition: inactive

Item: `COc1ccccc1-c1nc(NCc2ccc(-c3cccnc3)cc2)c2ccccc2n1` | activity change, negative = inhibition: inactive

Item: CCC12CCCN3CCc4c(n(c5ccccc45)C(O)C1)C32 (configuration not stated) | activity change, negative = inhibition: inactive

Item: `O=C(O)c1ccc(CSc2nnc(-c3cccc(S(=O)(=O)NC4CCCC4)c3)n2-c2ccc(F)cc2)cc1` | activity change, negative = inhibition: inactive

Item: CC(C)c1ccccc1-c1ncc(F)c(NCC2CCN(c3cnccn3)C2)n1 (configuration not stated) | activity change, negative = inhibition: inactive

Item: `c1ccc(CN(Cc2ccccc2)Cc2nnc(-c3cc4ccccc4[nH]3)o2)cc1` | activity change, negative = inhibition: inactive

Item: `Cc1ccnc(NC(=O)N2CCN(c3cccc(C(F)(F)F)c3)CC2)c1` | activity change, negative = inhibition: inactive

Item: `O=C(Nc1ccc(-c2ccncc2)nc1)c1cccs1` | activity change, negative = inhibition: inactive
